target-desc: CDK2/CyclinE1 (Homo sapiens, UniProt P24941)
experiment: CDK2/CyclinE1 kinase inhibitory activity (Caliper mobility shift)
condition-context: enzyme 3 nM, ATP 77 μM, 28° C. 30 min; read-out: CDK2/Cyclin E1 IC50
Would you kindly list IC50 for each of these molecules?

Supply reported IC50 belonging to this molecule: CC(C)n1c(C(C)(C)O)nc2c(F)cc(-c3cc(N[C@@H]4CCOC[C@H]4O)ncc3Cl)cc21 [Example 12]
≥ 1000 nM

Supply reported IC50 belonging to this molecule: Cc1c(C(C)(C)O)cnc2c(F)cc(-c3nc(N[C@@H]4CCOC[C@H]4O)ncc3F)cc12 [Example 23]
10 to 100 nM

Supply reported IC50 belonging to this molecule: Cc1nc2c(F)cc(-c3nc(N[C@@H]4CCOC[C@H]4O)ncc3Cl)cc2c2c1CC(C)(C)NC2 [Example 98]
100 to 1000 nM

Supply reported IC50 belonging to this molecule: CNC(C)c1cc2cc(-c3nc(N[C@@H]4CCOC[C@H]4O)ncc3Cl)cc(F)c2nc1C (single isomer, unassigned) [Example 45b]
≥ 1000 nM

Supply reported IC50 belonging to this molecule: CC1(C)Cc2cnc3c(F)cc(-c4ccnc(N[C@@H]5CCOC[C@H]5O)n4)cc3c2CN1 [Example 107]
100 to 1000 nM

Supply reported IC50 belonging to this molecule: CC1Cc2cnc3c(F)cc(-c4nc(N[C@@H]5CCOC[C@H]5O)ncc4Cl)cc3c2CN1 (single isomer, unassigned) [Example 34a]
10 to 100 nM

Supply reported IC50 belonging to this molecule: [2H]c1nc2c(F)cc(-c3nc(N[C@@H]4CCOC[C@H]4O)ncc3C)cc2c2c1CC1(CC1)NC2 [Example 67]
≥ 1000 nM

Supply reported IC50 belonging to this molecule: O[C@@H]1COCC[C@H]1Nc1ncc(Cl)c(-c2cc(F)c3ncc4c(c3c2)C2CCC(C4)N2)n1 (single isomer, unassigned) [Example 20b]
100 to 1000 nM

Supply reported IC50 belonging to this molecule: CC(C)(O)c1cnc2c(F)cc(-c3nc(Nc4ccc(-c5c[nH]cn5)cn4)ncc3F)cc2c1Cl [Example 52]
≥ 1000 nM

Supply reported IC50 belonging to this molecule: [2H]c1nc2c(F)cc(-c3nc(N[C@@H]4CCOC[C@H]4O)ncc3C)cc2c2c1CC(C)(C)NC2 [Example 102]
≥ 1000 nM

Supply reported IC50 belonging to this molecule: O[C@@H]1COCC[C@H]1Nc1ncc(F)c(-c2cc(F)c3ncc4c(c3c2)CNC2(CC2)C4)n1 [Example 56]
10 to 100 nM

Supply reported IC50 belonging to this molecule: CC1(C)Cc2cnc3c(F)cc(-c4nc(N[C@@H]5CCOC[C@H]5O)ncc4C#N)cc3c2CN1 [Example 49]
100 to 1000 nM

Supply reported IC50 belonging to this molecule: Cc1nc2c(F)cc(-c3nc(N[C@@H]4CCOC[C@H]4O)ncc3Cl)cc2c(Cl)c1C(C)O (single isomer, unassigned) [Example 35a]
100 to 1000 nM

Supply reported IC50 belonging to this molecule: Cc1c(C(C)(C)O)cnc2c(F)cc(-c3nc(N[C@@H]4CCOC[C@H]4O)ncc3Cl)cc12 [Example 7]
100 to 1000 nM

Supply reported IC50 belonging to this molecule: [2H]c1nc(N[C@@H]2CCOC[C@H]2O)nc(-c2cc(F)c3nc([2H])c4c(c3c2)CNC2(CC2)C4)c1Cl [Example 68]
100 to 1000 nM

Supply reported IC50 belonging to this molecule: Cc1nc2c(F)cc(-c3nc(N[C@@H]4CCOC[C@H]4O)ncc3Cl)cc2c(C)c1[C@@H](C)O (single isomer, unassigned) [Example 15a]
100 to 1000 nM

Supply reported IC50 belonging to this molecule: Cc1nc2c(F)cc(-c3nc(N[C@@H]4CCOC[C@H]4O)ncc3Cl)cc2cc1C(C)(C)O [Example 5]
100 to 1000 nM

Supply reported IC50 belonging to this molecule: CC(C)(O)c1cnc2c(F)cc(-c3nc(N[C@@H]4CCOC[C@H]4O)ncc3Cl)cc2c1Cl [Example 17]
100 to 1000 nM

Supply reported IC50 belonging to this molecule: O[C@@H]1COCC[C@H]1Nc1cc(-c2cc(F)c3ncc4c(c3c2)CNCC4)c(Cl)cn1 [Example 25]
10 to 100 nM

Supply reported IC50 belonging to this molecule: Cc1nc2c(F)cc(-c3nc(N[C@@H]4CCOC[C@H]4O)ncc3F)cc2c2c1CC1(CC1)NC2 [Example 65]
100 to 1000 nM

Supply reported IC50 belonging to this molecule: Cc1c(C(C)(C)O)cnc2c(C)cc(-c3nc(N[C@@H]4CCOC[C@H]4O)ncc3Cl)cc12 [Example 58]
≥ 1000 nM

Supply reported IC50 belonging to this molecule: O[C@@H]1COCC[C@H]1Nc1ncc(Cl)c(-c2cc(F)c3c(c2)N2CCNC[C@@H]2CO3)n1 [Example 19]
10 to 100 nM

Supply reported IC50 belonging to this molecule: O[C@@H]1COCC[C@H]1Nc1ncc(Cl)c(-c2cc(F)c3ncc4c(c3c2)CCNC4)n1 [Example 8]
< 10 nM

Supply reported IC50 belonging to this molecule: [2H]c1nc2c(F)cc(-c3nc(N[C@@H]4CCOC[C@H]4O)ncc3Cl)cc2c2c1CC(C)(C)NC2 [Example 100]
100 to 1000 nM

Supply reported IC50 belonging to this molecule: Cc1nc2c(F)cc(-c3nc(N[C@@H]4CCOC[C@H]4O)ncc3Cl)cc2c(Cl)c1C(C)O (single isomer, unassigned) [Example 35b]
100 to 1000 nM

Supply reported IC50 belonging to this molecule: Cc1nc2c(F)cc(-c3nc(N[C@@H]4CCOC[C@H]4O)ncc3Cl)cc2c(C)c1[C@H](C)O (single isomer, unassigned) [Example 15b]
100 to 1000 nM

Supply reported IC50 belonging to this molecule: Cc1nc2c(F)cc(-c3nc(N[C@@H]4CCOC[C@H]4O)ncc3Cl)cc2cc1C(C)NC1CC1 (single isomer, unassigned) [Example 73b]
100 to 1000 nM

Supply reported IC50 belonging to this molecule: Cc1[nH]cnc1-c1cnc2c(F)cc(-c3nc(N[C@@H]4CCOC[C@H]4O)ncc3Cl)cc2c1 [Example 18]
100 to 1000 nM

These entries and their values trace back to patent US20260242395A1.
